Provenance of the data: ChEMBL document CHEMBL3407461

Reported inhibition values for a set of molecules
molecular target: Adenosine receptor A1 (Mus musculus) (UniProt Q60612); experiment: Displacement of [125I]I-AB-MECA from mouse A1 adenosine receptor expressed in HEK293 cells at 10 uM after 60 mins by liquid scintillation counting
Sequence (Q60612 whole entry): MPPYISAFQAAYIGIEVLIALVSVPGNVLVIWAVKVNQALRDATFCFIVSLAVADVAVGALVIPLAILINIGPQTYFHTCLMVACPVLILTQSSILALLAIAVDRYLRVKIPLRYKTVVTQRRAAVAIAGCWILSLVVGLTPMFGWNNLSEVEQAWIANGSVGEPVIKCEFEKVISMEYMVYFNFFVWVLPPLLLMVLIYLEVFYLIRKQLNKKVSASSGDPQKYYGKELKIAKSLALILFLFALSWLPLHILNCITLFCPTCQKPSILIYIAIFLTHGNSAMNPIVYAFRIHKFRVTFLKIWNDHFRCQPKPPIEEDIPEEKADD
Note to self: number, then unit, no commentary.

// solved cases for inhibition follow
| Cpd Smiles | Measured Result |
| --- | --- |
| CNC(=O)[C@@]12C[C@@H]1[C@@H](n1cnc3c(NCc4cccc(Cl)c4)nc(C#Cc4ccc(F)c(F)c4)nc31)[C@H](O)[C@@H]2O | 16% |
| CNC(=O)[C@@]12C[C@@H]1[C@@H](n1cnc3c(NC)nc(C#Cc4ccco4)nc31)[C@H](O)[C@@H]2O | 59% |
| CNC(=O)[C@@]12C[C@@H]1[C@@H](n1cnc3c(NC)nc(C#Cc4cnn(C)c4)nc31)[C@H](O)[C@@H]2O | 72% |
| CNC(=O)[C@@]12C[C@@H]1[C@@H](n1cnc3c(NC)nc(C#Cc4ccc(Cl)s4)nc31)[C@H](O)[C@@H]2O | 38% |

Now look at this one.
QUERY: Missing value: inhibition, Adenosine receptor A1 (Mus musculus) (UniProt Q60612), entry CNC(=O)[C@@]12C[C@@H]1[C@@H](n1cnc3c(NC)nc(C#Cc4cccs4)nc31)[C@H](O)[C@@H]2O . Fill in?
RESULT: 47%

---

test system: Mus musculus; test: Antinociceptive activity in chronic constriction injury neutropathic pain CD-1 mouse model assessed as maximum protection on ipsilateral hind paw at 3 umol/kg, po after 30 mins to 5 hrs post dose relative to control; type: functional; conditions: CD-1, po
Assay Metric: Emax at 3 µmol/kg
Lab note: write values as number then unit, every time.

# count of solved cases: 3
| Cpd Smiles | Measured Result |
| --- | --- |
| CNC(=O)[C@@]12C[C@@H]1[C@@H](n1cnc3c(NC)nc(C#Cc4ncccn4)nc31)[C@H](O)[C@@H]2O | 92.3% |
| CNC(=O)[C@@]12C[C@@H]1[C@@H](n1cnc3c(NC)nc(C#Cc4ccc(F)cc4)nc31)[C@H](O)[C@@H]2O | 72% |
| CNC(=O)[C@@]12C[C@@H]1[C@@H](n1cnc3c(NC)nc(C#Cc4ccccc4F)nc31)[C@H](O)[C@@H]2O | 56% |

QUERY: Would you mind telling me what Emax at 3 µmol/kg value was observed for CNC(=O)[C@H]1O[C@@H](n2cnc3c(NCc4cccc(I)c4)ncnc32)[C@H](O)[C@@H]1O ?
RESULT: 94.1%

QUERY: Item CNC(=O)[C@@]12C[C@@H]1[C@@H](n1cnc3c(NC)nc(C#Cc4cccc(F)c4)nc31)[C@H](O)[C@@H]2O has what recorded Emax at 3 µmol/kg?
RESULT: 46.3%

QUERY: Tell me the measured Emax at 3 µmol/kg of CNC(=O)[C@@]12C[C@@H]1[C@@H](n1cnc3c(NC)nc(C#Cc4ccccc4)nc31)[C@H](O)[C@@H]2O , please.
RESULT: 44.1%

QUERY: Using the record for CNC(=O)[C@@]12C[C@@H]1[C@@H](n1cnc3c(NC)nc(C#Cc4ccccn4)nc31)[C@H](O)[C@@H]2O , report its Emax at 3 µmol/kg.
RESULT: 31.8%

QUERY: What value of Emax at 3 µmol/kg has been recorded for this entry: CNC(=O)[C@@]12C[C@@H]1[C@@H](n1cnc3c(NC)nc(C#Cc4nccs4)nc31)[C@H](O)[C@@H]2O
RESULT: 53.2%
